- assayed_target: 5-lipoxygenase (Rattus norvegicus)
- Construct: endogenous in cells
- Sequence (P12527 whole entry): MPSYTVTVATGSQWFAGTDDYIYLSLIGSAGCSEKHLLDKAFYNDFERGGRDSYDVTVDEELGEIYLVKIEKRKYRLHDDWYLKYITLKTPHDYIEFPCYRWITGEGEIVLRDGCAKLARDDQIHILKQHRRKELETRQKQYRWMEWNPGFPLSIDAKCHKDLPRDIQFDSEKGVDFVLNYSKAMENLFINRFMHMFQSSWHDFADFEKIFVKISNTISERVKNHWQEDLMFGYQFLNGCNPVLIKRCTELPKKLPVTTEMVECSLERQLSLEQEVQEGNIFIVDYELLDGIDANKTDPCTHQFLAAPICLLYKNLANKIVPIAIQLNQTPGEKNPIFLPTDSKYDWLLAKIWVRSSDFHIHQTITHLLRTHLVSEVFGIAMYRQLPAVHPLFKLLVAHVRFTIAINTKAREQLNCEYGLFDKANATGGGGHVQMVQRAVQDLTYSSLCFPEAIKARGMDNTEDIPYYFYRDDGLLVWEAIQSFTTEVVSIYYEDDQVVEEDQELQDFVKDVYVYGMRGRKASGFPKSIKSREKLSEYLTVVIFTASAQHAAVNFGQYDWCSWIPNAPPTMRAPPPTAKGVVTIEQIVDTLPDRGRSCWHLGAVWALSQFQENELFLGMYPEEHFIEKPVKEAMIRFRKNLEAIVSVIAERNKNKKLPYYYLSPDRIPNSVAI
- test_details: Inhibition of 5-lipoxygenase activity (5-HETE and LTB4 production, LC/MS/MS)
- measurement_context: RBL-1 cells, 5 minutes at 37° C., then A23187 and arachidonic acid
pIC50: −log10 of the molar value.
endpoint_label: pIC50

[Q] // lookup pIC50 for CCC(C)CCCCCCCCCCC(=O)O (stereo not shown)
[A] ~3.99

These data points were gathered from patent US6541519B2.
